// EC50 PEGylated peptide, inhibition of CD40L-induced CD86 expression on primary B-cells lookup, one value per entry
tested.system: T1, CD40 ligand (UniProt P29965 108-261, limits assumed)
T1 sequence (looked up): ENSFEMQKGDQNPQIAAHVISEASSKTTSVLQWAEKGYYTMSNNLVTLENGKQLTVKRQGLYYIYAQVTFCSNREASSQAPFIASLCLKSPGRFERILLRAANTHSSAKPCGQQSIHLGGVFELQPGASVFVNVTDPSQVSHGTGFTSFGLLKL
test.description: cell-based or functional assay
No end group written: not given here. PEG = not defined here
Please give a number only; it is taken to be in µM.

INSERT INTO assay_data (binder, readout_units, reported_result) VALUES
  ('{PEG}-PRWVRNRFYSLFVPSGVQRGGIHLWFSNWVR (reading uncertain, also called PEGylated M1_50S) [PEGylated CD40L M1_50s]', 'µM', 0.03);

Proceed to the following item.
Recorded EC50 PEGylated peptide, inhibition of CD40L-induced CD86 expression on primary B-cells of {PEG}-HSFVLFGVNVPFNIIDFQMRVKS (reading uncertain, also called PEGylated M1_42S) [PEGylated CD40L M1_42s] , please.
5

Recorded values, source patent US20130266605A1.
